- Assay notes: Oral bioavailability in rat at 3 mg/kg
- Type: ADME, organism-based
- Experimental parameters: in vivo
Measurement name: bioavailability
The answer should read as a number with its unit following.

Exercise: Query (compound): `C[C@@H]1CN(c2cccnc2F)C(=O)c2cc(COc3ccc(Cl)cn3)nn21` ; field requested: bioavailability
Solution: 60%

----------
- System name: Metabotropic glutamate receptor 5 (Rattus norvegicus)
- Assay notes: Modulation of rat mGlu5 receptor assessed as assessed as calcium mobilization at 30 uM by cell based fluorescence assay
- Type: functional
Entries and their Activity
// note: answer is a bare numeric in %

- C[C@@H]1CN(c2ccc(C#N)cc2)C(=O)c2cc(COc3ccc(Cl)cn3)nn21: 23.1

We next turn to a different compound, shown below.
Exercise: Query (compound): `COc1ccccc1N1C[C@@H](C)n2nc(COc3ccc(F)cn3)cc2C1=O` ; field requested: Activity
Solution: 3.28

----------
- Assay notes: Plasma concentration in mouse at 10 mg/kg, ip after 30 mins
- Format: ADME, organism-based
Measurement name: concentration at 0.5 h (nM)
// note: answer is a bare numeric in nM

Exercise: Query (molecule): `C[C@@H]1CN(c2cccnc2F)C(=O)c2cc(COc3ccc(Cl)cn3)nn21` ; field requested: concentration at 0.5 h
Solution: 2290

----------
Entries and their Activity
- System name: Metabotropic glutamate receptor 5 (Rattus norvegicus) (UniProt P31424)
- Sequence (P31424 21-1203 limits assumed): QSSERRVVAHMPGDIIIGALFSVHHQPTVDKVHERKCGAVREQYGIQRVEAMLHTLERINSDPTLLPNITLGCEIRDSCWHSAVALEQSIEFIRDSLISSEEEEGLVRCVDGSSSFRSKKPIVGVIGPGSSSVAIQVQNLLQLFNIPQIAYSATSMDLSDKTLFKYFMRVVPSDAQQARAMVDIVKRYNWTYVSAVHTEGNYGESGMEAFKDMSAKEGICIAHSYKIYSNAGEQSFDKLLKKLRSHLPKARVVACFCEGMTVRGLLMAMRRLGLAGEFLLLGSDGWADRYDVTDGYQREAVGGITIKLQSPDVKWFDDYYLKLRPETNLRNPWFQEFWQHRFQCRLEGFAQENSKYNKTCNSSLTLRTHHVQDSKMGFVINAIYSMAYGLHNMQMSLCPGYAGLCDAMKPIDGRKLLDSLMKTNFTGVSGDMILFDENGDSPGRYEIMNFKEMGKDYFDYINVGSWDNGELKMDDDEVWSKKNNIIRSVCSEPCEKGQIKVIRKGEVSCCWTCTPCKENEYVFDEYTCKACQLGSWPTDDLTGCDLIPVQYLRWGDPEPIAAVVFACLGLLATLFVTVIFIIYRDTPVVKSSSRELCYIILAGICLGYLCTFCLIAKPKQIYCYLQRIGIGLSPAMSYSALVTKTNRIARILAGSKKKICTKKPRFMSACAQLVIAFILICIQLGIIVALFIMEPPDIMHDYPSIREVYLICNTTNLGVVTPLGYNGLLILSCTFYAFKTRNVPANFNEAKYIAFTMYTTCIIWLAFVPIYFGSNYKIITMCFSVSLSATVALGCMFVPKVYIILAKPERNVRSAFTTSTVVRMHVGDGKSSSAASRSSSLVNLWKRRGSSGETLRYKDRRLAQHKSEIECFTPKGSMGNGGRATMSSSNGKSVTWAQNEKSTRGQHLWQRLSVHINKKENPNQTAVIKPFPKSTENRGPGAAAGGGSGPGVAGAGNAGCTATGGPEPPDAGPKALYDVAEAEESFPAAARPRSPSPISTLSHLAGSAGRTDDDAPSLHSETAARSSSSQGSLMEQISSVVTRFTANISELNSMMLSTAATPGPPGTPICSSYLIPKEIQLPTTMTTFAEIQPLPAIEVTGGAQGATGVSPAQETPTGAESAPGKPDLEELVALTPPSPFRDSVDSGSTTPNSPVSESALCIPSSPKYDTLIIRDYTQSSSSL
- Assay notes: Modulation of rat mGlu5 receptor assessed as assessed as calcium mobilization at 30 uM by cell based fluorescence assay
- Type: functional
// note: answer is a bare numeric in %

Example entries and their recorded answers appear below.
- Cc1ccnc(OCc2cc3n(n2)[C@H](C)CN(c2ccc(F)cc2)C3=O)c1: 46.9
- C[C@@H]1CN(c2cccc(C#N)c2)C(=O)c2cc(COc3ccc(Cl)cn3)nn21: 32.2
- C[C@@H]1CN(c2ccc(F)cc2)C(=O)c2cc(COc3ccc(C#N)cc3)nn21: 38.6

Exercise: Query (compound): `Cc1ccc(OCc2cc3n(n2)[C@H](C)CN(c2ccc(F)cc2)C3=O)cc1` ; field requested: Activity
Solution: 92.5

Exercise: Query (compound): `C[C@@H]1CN(c2cccc(F)c2F)C(=O)c2cc(COc3ccc(F)cn3)nn21` ; field requested: Activity
Solution: 21

Exercise: Query (compound): `C[C@@H]1CN(c2ccc(F)cc2F)C(=O)c2cc(COc3ccc(Cl)cn3)nn21` ; field requested: Activity
Solution: 70.8

----------
- System name: Metabotropic glutamate receptor 5 (Rattus norvegicus)
- Assay notes: Modulation of rat mGlu5 receptor assessed as assessed as calcium mobilization at 30 uM by cell based fluorescence assay
- Type: functional
Measurement name: Activity (%)
// note: answer is a bare numeric in %

Example entries and their recorded answers appear below.
- COc1cccc(N2C[C@@H](C)n3nc(COc4ccc(Cl)cn4)cc3C2=O)c1: 78
- C[C@@H]1CN(c2ccc(F)cc2)C(=O)c2cc(COc3ccc(F)cc3F)nn21: 82.3
- C[C@@H]1CN(c2cccc(F)c2F)C(=O)c2cc(COc3ccc(Cl)cn3)nn21: 36.1
- C[C@@H]1CN(c2ccccc2F)C(=O)c2cc(COc3ccc(Cl)cn3)nn21: 57.3
- C[C@@H]1CN(c2ccc(F)cc2)C(=O)c2cc(COc3cccc(F)c3)nn21: 86.1
- COc1cccc(OCc2cc3n(n2)[C@H](C)CN(c2ccc(F)cc2)C3=O)n1: 31.2
- C[C@@H]1CN(c2cccnc2)C(=O)c2cc(COc3ccc(F)cn3)nn21: 46.3
- C[C@@H]1CN(c2ccccc2Cl)C(=O)c2cc(COc3ccc(F)cn3)nn21: 8.78
- C[C@@H]1CN(c2cccc(F)c2)C(=O)c2cc(COc3ccc(F)cn3)nn21: 9.71
- C[C@@H]1CN(c2ccccn2)C(=O)c2cc(COc3ccc(F)cn3)nn21: 3.71

Exercise: # value lookup — system Metabotropic glutamate receptor 5 (Rattus norvegicus), readout Activity, item `C[C@@H]1CN(c2ccc(F)cc2)C(=O)c2cc(COc3ncccc3F)nn21`
Solution: 78.5

Exercise: # value lookup — system Metabotropic glutamate receptor 5 (Rattus norvegicus), readout Activity, item `C[C@@H]1CN(c2cccc(F)n2)C(=O)c2cc(COc3ccc(Cl)cn3)nn21`
Solution: 24.8

Exercise: # value lookup — system Metabotropic glutamate receptor 5 (Rattus norvegicus), readout Activity, item `C[C@@H]1CN(c2ccc(F)cn2)C(=O)c2cc(COc3ccc(F)cn3)nn21`
Solution: 7

Exercise: # value lookup — system Metabotropic glutamate receptor 5 (Rattus norvegicus), readout Activity, item `C[C@@H]1CN(c2ccc(F)cc2)C(=O)c2cc(COc3cc(C(F)(F)F)ccn3)nn21`
Solution: 12.9

Exercise: # value lookup — system Metabotropic glutamate receptor 5 (Rattus norvegicus), readout Activity, item `COc1cccc(N2C[C@@H](C)n3nc(COc4ccc(F)cn4)cc3C2=O)c1`
Solution: 59.7

Exercise: # value lookup — system Metabotropic glutamate receptor 5 (Rattus norvegicus), readout Activity, item `C[C@@H]1CN(c2ccccc2C#N)C(=O)c2cc(COc3ccc(Cl)cn3)nn21`
Solution: 38.1

Exercise: # value lookup — system Metabotropic glutamate receptor 5 (Rattus norvegicus), readout Activity, item `Cc1cccc(OCc2cc3n(n2)[C@H](C)CN(c2ccc(F)cc2)C3=O)n1`
Solution: 2.47
